Published IC50 for CRBN-DDB1 (Homo sapiens, UniProt Q96SW2), assembled from different documents, is shown next.
Observable: IC50 (nM)

[
  {
    "Compound": "CCc1cc(NC(=O)OCc2ccc3c(c2)C(=O)N(C2CCC(=O)NC2=O)C3)cnc1C (stereo not shown)",
    "Readout units": "nM",
    "Result qualifier": "<",
    "Measured number": 1100
  },
  {
    "Compound": "Cc1nc2cccc(NCCCCCCCN3CCN(C4COC4)CC3)c2c(=O)n1C1CCC(=O)NC1=O (stereo not shown)",
    "Readout units": "nM",
    "Result qualifier": "=",
    "Measured number": 2520
  },
  {
    "Compound": "CC1(C)CCC(C(=O)N2CCN(Cc3ccc4c(c3)CN(C3CCC(=O)NC3=O)C4=O)CC2)=C(c2ccc(F)cc2)C1 (stereo not shown)",
    "Readout units": "nM",
    "Result qualifier": "=",
    "Measured number": 350
  }
]

* * *

pIC50: −log10 of the molar value.
Published pIC50 for CRBN-DDB1 (Homo sapiens, UniProt Q96SW2), assembled from different documents, is shown next.

[
  {
    "Molecule": "O=C1CCC(N2Cc3cc(OC4CN(C(c5ccccc5)c5ccccc5)C4)ccc3C2=O)C(=O)N1 (centres unmarked)",
    "Result qualifier": ">",
    "pIC50": 6.30
  },
  {
    "Molecule": "CC1(C)CCC(CN2CCN(Cc3ccc4c(c3F)CN(C3CCC(=O)NC3=O)C4=O)CC2)=C(c2ccc(Cl)cc2)C1 (centres unmarked)",
    "Result qualifier": "=",
    "pIC50": 5.53
  },
  {
    "Molecule": "O=C1CCC(N2Cc3cc(CN4CCN(C(=O)C5=C(c6ccc(F)cc6)CCCC5)CC4)ccc3C2=O)C(=O)N1 (centres unmarked)",
    "Result qualifier": "=",
    "pIC50": 6.00
  },
  {
    "Molecule": "CC1(C)CCC(CN2CCN(Cc3ccc4c(c3)CN(C3CCC(=O)NC3=O)C4=O)CC2)=C(c2cncs2)C1 (centres unmarked)",
    "Result qualifier": "=",
    "pIC50": 6.14
  },
  {
    "Molecule": "O=C1CCC(c2ccc(CCO)cc2)C(=O)N1 (centres unmarked)",
    "Result qualifier": "=",
    "pIC50": 6.62
  },
  {
    "Molecule": "CC1(C)CCC(CN2CCN(Cc3ccc4c(c3)C(=O)N(C3CCC(=O)NC3=O)C4=O)CC2)=C(c2ccc(F)cc2)C1 (centres unmarked)",
    "Result qualifier": "=",
    "pIC50": 5.79
  },
  {
    "Molecule": "O=C1CCC(N2Cc3cc(C(O)C4(O)CN(C(=O)c5ccccc5-c5ccc(Cl)cc5)C4)ccc3C2=O)C(=O)N1 (centres unmarked)",
    "Result qualifier": "=",
    "pIC50": 6.44
  },
  {
    "Molecule": "CC1(C)CCC(C(=O)N2CCN(Cc3ccc4c(c3)CN(C3CCC(=O)NC3=O)C4=O)C(C(F)(F)F)C2)=C(c2ccc(Cl)cc2)C1 (centres unmarked)",
    "Result qualifier": "=",
    "pIC50": 6.12
  },
  {
    "Molecule": "O=C1CCC(N2Cc3cc(NC4CCN(C(=O)c5ccccc5-c5ccc(Cl)cc5)CC4)ccc3C2=O)C(=O)N1 (centres unmarked)",
    "Result qualifier": "=",
    "pIC50": 6.21
  },
  {
    "Molecule": "O=C1CCC(N2Cc3cc(OC4CC5CN(Cc6ccccc6-c6ccc(Cl)cc6)CC5C4)ccc3C2=O)C(=O)N1 (centres unmarked)",
    "Result qualifier": ">",
    "pIC50": 6.30
  },
  {
    "Molecule": "CC1(C)CCC(C(=O)N2CCC(Oc3ccc4c(c3)CN(C3CCC(=O)NC3=O)C4=O)C2)=C(c2ccc(Cl)cc2)C1 (centres unmarked)",
    "Result qualifier": ">",
    "pIC50": 6.30
  },
  {
    "Molecule": "Cc1cc(C)cc(NC(=O)OCc2ccc3c(c2)C(=O)N(C2CCC(=O)NC2=O)C3)c1 (centres unmarked)",
    "Result qualifier": ">",
    "pIC50": 5.96
  },
  {
    "Molecule": "O=C1CCC(N2Cc3cc(SC4CN(C(=O)c5ccccc5-c5ccc(Cl)cc5)C4)ccc3C2=O)C(=O)N1 (centres unmarked)",
    "Result qualifier": ">",
    "pIC50": 6.30
  },
  {
    "Molecule": "CC1(C)CCC(C(=O)N2CC3(CN(Cc4ccc5c(c4)CN(C4CCC(=O)NC4=O)C5=O)C3)C2)=C(c2ccc(Cl)cc2)C1 (centres unmarked)",
    "Result qualifier": "=",
    "pIC50": 6.34
  },
  {
    "Molecule": "O=C1CCC(N2Cc3cc(CN4CCN(Cc5ccc(-c6ccc(Cl)cc6)s5)CC4)ccc3C2=O)C(=O)N1 (centres unmarked)",
    "Result qualifier": "=",
    "pIC50": 5.78
  },
  {
    "Molecule": "CC1(C)CCC(CN2CC3CCC2CN3c2ccc3c(c2)C(=O)N(C2CCC(=O)NC2=O)C3=O)=C(c2ccc(F)cc2)C1 (centres unmarked)",
    "Result qualifier": "=",
    "pIC50": 6.39
  },
  {
    "Molecule": "O=C1CCC(N2Cc3c(ccc(CN4CCN(C(=O)C5=C(c6ccc(F)cc6)CCCC5)CC4)c3F)C2=O)C(=O)N1 (centres unmarked)",
    "Result qualifier": "=",
    "pIC50": 5.95
  },
  {
    "Molecule": "O=C1CCC(N2Cc3cc(CN4CCN(C(=O)c5ccncc5-c5ccc(Cl)cc5)CC4)ccc3C2=O)C(=O)N1 (centres unmarked)",
    "Result qualifier": "=",
    "pIC50": 6.25
  },
  {
    "Molecule": "O=C1CCC(N2Cc3c(ccc(CN4CCN(C(=O)c5ccccc5-c5ccc(Cl)cc5)CC4)c3F)C2=O)C(=O)N1 (centres unmarked)",
    "Result qualifier": "=",
    "pIC50": 6.17
  },
  {
    "Molecule": "O=C1CCC(N2Cc3cc(CN4CCN(Cc5ccccc5-c5ccco5)CC4)ccc3C2=O)C(=O)N1 (centres unmarked)",
    "Result qualifier": "=",
    "pIC50": 6.37
  }
]

* * *

Published pIC50 for CRBN-DDB1 (Homo sapiens), assembled from different documents, is shown next.
pIC50: −log10 of the molar value.

[
  {
    "Compound": "O=C1CCC(N2Cc3cc(OC4CN(C(c5ccccc5F)c5ccccc5F)C4)ccc3C2=O)C(=O)N1 (stereo not drawn)",
    "System tested": "CRBN-DDB1 (Homo sapiens)",
    "Result qualifier": ">",
    "pIC50": 6.30
  },
  {
    "Compound": "CC1(c2ccc(NC(=O)OCc3ccc4c(c3)C(=O)N(C3CCC(=O)NC3=O)C4)cc2)CC1 (stereo not drawn)",
    "System tested": "CRBN-DDB1 (Homo sapiens)",
    "Result qualifier": ">",
    "pIC50": 5.96
  },
  {
    "Compound": "CC1(C)CCC(C(=O)N2CC(O)(C(O)c3ccc4c(c3)CN(C3CCC(=O)NC3=O)C4=O)C2)=C(c2ccc(Cl)cc2)C1 (stereo not drawn)",
    "System tested": "CRBN-DDB1 (Homo sapiens)",
    "Result qualifier": "=",
    "pIC50": 6.21
  },
  {
    "Compound": "CC1(C)CCC(CN2CC(Cc3ccc4c(c3)CN(C3CCC(=O)NC3=O)C4=O)C2)=C(c2ccc(Cl)cc2)C1 (stereo not drawn)",
    "System tested": "CRBN-DDB1 (Homo sapiens)",
    "Result qualifier": "=",
    "pIC50": 5.97
  },
  {
    "Compound": "CC1(C)CCC(CN2CC3CCC2CN3C(=O)c2ccc3c(c2)CN(C2CCC(=O)NC2=O)C3=O)=C(c2ccc(Cl)cc2)C1 (stereo not drawn)",
    "System tested": "CRBN-DDB1 (Homo sapiens)",
    "Result qualifier": "=",
    "pIC50": 6.03
  },
  {
    "Compound": "CC1(C)CCC(C(=O)N2CC3CCC2CN3Cc2ccc3c(c2)CN(C2CCC(=O)NC2=O)C3=O)=C(c2ccc(Cl)cc2)C1 (stereo not drawn)",
    "System tested": "CRBN-DDB1 (Homo sapiens)",
    "Result qualifier": "=",
    "pIC50": 6.15
  },
  {
    "Compound": "O=C1CCC(N2Cc3cc(CN4CCN(Cc5cnc(-c6ccccc6)cn5)CC4)ccc3C2=O)C(=O)N1 (stereo not drawn)",
    "System tested": "CRBN-DDB1 (Homo sapiens)",
    "Result qualifier": "=",
    "pIC50": 6.08
  },
  {
    "Compound": "O=C1CCC(N2Cc3cc(CN4CCN(Cc5ccc(-c6ccncc6)nc5)CC4)ccc3C2=O)C(=O)N1 (stereo not drawn)",
    "System tested": "CRBN-DDB1 (Homo sapiens)",
    "Result qualifier": "=",
    "pIC50": 6.12
  },
  {
    "Compound": "CC1(C)CC(c2ccc(Cl)cc2)=C(CN2CC(Oc3ccc4c(c3)CN(C3CCC(=O)NC3=O)C4=O)C2)CO1 (stereo not drawn)",
    "System tested": "CRBN-DDB1 (Homo sapiens)",
    "Result qualifier": ">",
    "pIC50": 6.30
  },
  {
    "Compound": "O=C1CCC(N2Cc3ccc(COC(=O)Nc4cnc5c(c4)CCC5)cc3C2=O)C(=O)N1 (stereo not drawn)",
    "System tested": "CRBN-DDB1 (Homo sapiens)",
    "Result qualifier": ">",
    "pIC50": 5.96
  },
  {
    "Compound": "CC1(C)CCC(CN2CCN(Cc3ccc4c(c3)CN(C3CCC(=O)NC3=O)C4=O)CC2)=C(c2ccc(F)cc2)C1 (stereo not drawn)",
    "System tested": "CRBN-DDB1 (Homo sapiens)",
    "Result qualifier": "=",
    "pIC50": 6.39
  },
  {
    "Compound": "CC1(C)CCC(CN2CC3CN(Cc4ccc5c(c4)CN(C4CCC(=O)NC4=O)C5=O)CC3C2)=C(c2ccc(F)cc2)C1 (stereo not drawn)",
    "System tested": "CRBN-DDB1 (Homo sapiens)",
    "Result qualifier": "=",
    "pIC50": 5.98
  },
  {
    "Compound": "CC1(C)CCC(CN2CCN(C(=O)c3ccc4c(c3)C(=O)N(C3CCC(=O)NC3=O)C4=O)CC2)=C(c2ccc(Cl)cc2)C1 (stereo not drawn)",
    "System tested": "CRBN-DDB1 (Homo sapiens)",
    "Result qualifier": "=",
    "pIC50": 5.84
  }
]
